// data source = ChEMBL document CHEMBL5050827

test: Clearance in Balb/C mouse plasma at 10 mg/kg, po by LC-MS analysis; format: ADME, organism-based
quantity-kind: CL/F (mL/min/kg)

The cases that follow already have their CL/F on record.
structure-as-smiles | CL/F [mL/min/kg]
O=C(Nc1cnn(Cc2ccc(C(F)(F)F)cc2C(F)(F)F)c1)c1cc(-c2ccccn2)on1 | 16.2
C[C@H](c1ccc(C(F)(F)F)cc1C(F)(F)F)n1cc(NC(=O)c2cc(-c3ccccn3)no2)cn1 | 3.68

(P) C[C@H](c1ccc(C(F)(F)F)cc1C(F)(F)F)n1cc(NC(=O)c2cc(-c3cnccn3)on2)cn1
(Q) O=C(Nc1cnn(Cc2ccc(C(F)(F)F)cc2C(F)(F)F)c1)c1cc(-c2ccco2)on1
(R) C[C@@H](c1ccc(C(F)(F)F)cc1C(F)(F)F)n1cc(NC(=O)c2cc(-c3ccco3)on2)cn1
(S) C[C@H](c1ccc(C(F)(F)F)cc1C(F)(F)F)n1cc(NC(=O)c2nnc(-c3ccccn3)s2)cn1
(T) C[C@@H](c1ccc(C(F)(F)F)cc1C(F)(F)F)n1cc(NC(=O)c2cc(-c3ccccn3)on2)cn1
Arrange the 5 compounds by rising CL/F, starting with the smallest. API: response body holds the labels in the requested order.
P, S, T, R, Q
(P: 1.56 mL/min/kg, S: 2.68 mL/min/kg, T: 5.17 mL/min/kg, R: 267 mL/min/kg, Q: 3850 mL/min/kg)

----------
assay: Inhibition of ATF6 activity in human U2OS cells in presence of ER stress inducer thapsigargin (Tg) measured by TRE-luciferase reporter assay; format: cell-based
Entries and their IC50

Which IC50 reading was recorded for the molecule C[C@@H](c1ccc(C(F)(F)F)cc1C(F)(F)F)n1cc(NC(=O)c2coc(-c3ccccn3)n2)cn1 ?
> 10000 nM

// query IC50 value for entry O=C(Nc1cnn(C2CCc3ccccc32)c1)c1nnc(-c2ccco2)o1 (stereo not given)
> 10000 nM

----------
assay: Inhibition of ATF6 activity in human U2OS cells in presence of ER stress inducer thapsigargin (Tg) measured by TRE-luciferase reporter assay; type: cell-based
quantity-kind: IC50

Which IC50 is listed for C[C@@H](c1ccc(C(F)(F)F)cc1C(F)(F)F)n1cc(NC(=O)c2cnc(-c3ccccn3)o2)cn1 ?
> 10000 nM

----------
assay: AUC (infinity) in Balb/C mouse plasma at 10 mg/kg, po by LC-MS analysis; assay type: ADME, organism-based; set-up: route oral, time infinity, dose 10 mg/kg
quantity-kind: AUC(0-inf) (ng·h/mL)
The figure you give is taken to be in ng·h/mL; do not add the unit.

May I ask what AUC(0-inf) has been recorded for O=C(Nc1cnn(Cc2ccc(C(F)(F)F)cc2C(F)(F)F)c1)c1cc(-c2ccco2)on1 ?
43.3

----------
test system: U2OS; test: Inhibition of ATF6 activity in human U2OS cells at 1 uM in presence of ER stress inducer thapsigargin (Tg) measured by TRE-luciferase reporter assay relative to control; type: cell-based
quantity-kind: inhibition (%)
Give just the numeric value; % need not be written.

structure-as-smiles | inhibition [%]
Cc1c(NC(=O)c2cc(-c3ccccn3)on2)cnn1Cc1ccc(C(F)(F)F)cc1C(F)(F)F | 25

Which inhibition reading was recorded for the molecule C[C@H](c1ccc(C(F)(F)F)cc1C(F)(F)F)n1cc(NC(=O)c2cnc(-c3ccccn3)s2)cn1 ?
25

----------
experiment: Half-life in Balb/C mouse plasma at 10 mg/kg, po by LC-MS analysis; type: ADME, organism-based
quantity-kind: half-life (h)
Numbers only here, please. The scale is h.

What value of half-life has been recorded for this entry: O=C(Nc1cnn(Cc2ccc(C(F)(F)F)cc2C(F)(F)F)c1)c1cc(-c2ccco2)on1
2.49

----------
assay: AUC (last) in Balb/C mouse plasma at 10 mg/kg, po by LC-MS analysis; format: ADME, organism-based; set-up: time 0 - last, route oral, dose 10 mg/kg
quantity-kind: AUC(0-t) (ng·h/mL)
Quick note: give the figure in ng·h/mL, leave out the unit.

Query: AUC(0-t); subject: O=C(Nc1cnn(Cc2ccc(C(F)(F)F)cc2C(F)(F)F)c1)c1cc(-c2ccco2)on1
39.1

----------
assay: Inhibition of ATF6 activity in human U2OS cells in presence of ER stress inducer thapsigargin (Tg) measured by TRE-luciferase reporter assay; assay type: cell-based
// IC50 lookup, one value per entry

Answered examples (2):
structure-as-smiles | IC50
O=C(Nc1cnn(Cc2ccc(C(F)(F)F)cc2)c1)c1cc(-c2ccco2)on1 | > 10000 nM
O=C(Nc1cnn(Cc2ccc(C(F)(F)F)cc2C(F)(F)F)c1)c1cc(-c2ccco2)on1 | < 1000 nM

Now look at this one.
# input compound: O=C(Nc1cnn(Cc2ccccc2)c1)c1cc(-c2ccco2)on1 ; wanted: its IC50
> 10000 nM

----------
Entries annotated with measured inhibition
tested on: U2OS; test: Inhibition of ATF6 activity in human U2OS cells at 1 uM in presence of ER stress inducer thapsigargin (Tg) measured by TRE-luciferase reporter assay relative to control; format: cell-based

Some compounds with known inhibition results, for comparison:
structure-as-smiles | inhibition
O=C(Nc1cnn(Cc2ccc(C(F)(F)F)cc2C(F)(F)F)c1)c1cc(-c2ccco2)on1 | > 50%
C[C@@H](c1ccc(C(F)(F)F)cc1C(F)(F)F)n1cc(NC(=O)c2nnc(-c3ccccn3)s2)cn1 | < 25%

Moving on to another compound below.
Looking for the measured inhibition of C[C@H](c1ccc(C(F)(F)F)cc1C(F)(F)F)n1cc(NC(=O)c2cc(-c3ccccn3)on2)cn1 , can you help?
< 25%
